Numbers sourced from the supplement of paper PMC10307832.

test system: UMC-11; test: relative viability (nuclei count vs DMSO), 5 days (fraction); higher = more cells survive; settings: first compound 0.1265 µM
So I've got a bunch of compounds here, and I need their relative viability values.

Task: # get_value(readout='relative viability', item= C[C@@H]1CN(CC(=O)Nc2ccc3c(c2)Cc2cccc(-c4cc(=O)cc(N5CCOCC5)o4)c2S3)C[C@H](C)O1 + CS(=O)(=O)CCNCc1ccc(-c2ccc3ncnc(Nc4ccc(OCc5cccc(F)c5)c(Cl)c4)c3c2)o1 [Lapatinib] (partner 2 µM) )
Output: 0.927

Task: # get_value(readout='relative viability', item= C[C@@H]1CN(CC(=O)Nc2ccc3c(c2)Cc2cccc(-c4cc(=O)cc(N5CCOCC5)o4)c2S3)C[C@H](C)O1 + Nc1nc2[nH]cc(CCc3ccc(C(=O)N[C@@H](CCC(=O)O)C(=O)O)cc3)c2c(=O)[nH]1 [Pemetrexed] (partner 0.2 µM) )
Output: 0.764

Task: # get_value(readout='relative viability', item= C[C@@H]1CN(CC(=O)Nc2ccc3c(c2)Cc2cccc(-c4cc(=O)cc(N5CCOCC5)o4)c2S3)C[C@H](C)O1 + COc1cc2c(Oc3ccc(NC(=O)C4(C(=O)Nc5ccc(F)cc5)CC4)cc3F)ccnc2cc1OCCCN1CCOCC1 [Foretinib] (partner 0.25 µM) )
Output: 0.995

Task: # get_value(readout='relative viability', item= COc1cc(N2CCC(C(N)=O)CC2)ccc1Nc1nc(N)c(Cl)c(Nc2ccccc2S(=O)(=O)C(C)C)n1 [HG-5-88-01] + C[C@@H](Oc1cc(-c2cnn(C3CCNCC3)c2)cnc1N)c1c(Cl)ccc(F)c1Cl [Crizotinib] (partner 1 µM) )
Output: 0.581

====

tested on: COR-L 105; assay: relative viability (nuclei count vs DMSO), 5 days (fraction); higher = more cells survive; details: first compound 1.265 µM
ASSAY_READOUT: relative viability
Give a plain numeric answer without units written out.

Task: # get_value(readout='relative viability', item= Clc1ccc(Nc2nnc(Cc3ccncc3)c3ccccc23)cc1 [Vatalanib] + N=C(N)NC(=N)NCCc1ccccc1 [Phenformin] (partner 250 µM) )
Output: 0.45

Task: # get_value(readout='relative viability', item= Clc1ccc(Nc2nnc(Cc3ccncc3)c3ccccc23)cc1 [Vatalanib] + CC(=O)Nc1cccc(-n2c(=O)n(C3CC3)c(=O)c3c(Nc4ccc(I)cc4F)n(C)c(=O)c(C)c32)c1 [Trametinib] (partner 0.02 µM) )
Output: 0.443

Task: # get_value(readout='relative viability', item= Clc1ccc(Nc2nnc(Cc3ccncc3)c3ccccc23)cc1 [Vatalanib] + CCNC(=O)c1noc(-c2cc(C(C)C)c(O)cc2O)c1-c1ccc(CN2CCOCC2)cc1 [Luminespib] (partner 0.01 µM) )
Output: 0.843

Task: # get_value(readout='relative viability', item= COc1cc(N2CCC(C(N)=O)CC2)ccc1Nc1nc(N)c(Cl)c(Nc2ccccc2S(=O)(=O)C(C)C)n1 [HG-5-88-01] + C[C@]1(O)C[C@@H](c2nc(-c3ccc4ccc(-c5ccccc5)nc4c3)c3c(N)nccn32)C1 [Linsitinib] (partner 1 µM) )
Output: 0.961

====

test system: NCI-H1648; assay: relative viability (nuclei count vs DMSO), 5 days (fraction); higher = more cells survive; details: first compound 4 µM
So I've got a bunch of molecules here, and I need their relative viability values.
Give a plain numeric answer without units written out.

Task: # get_value(readout='relative viability', item= C[C@@H]1CN(CC(=O)Nc2ccc3c(c2)Cc2cccc(-c4cc(=O)cc(N5CCOCC5)o4)c2S3)C[C@H](C)O1 + Cc1cc(Nc2cc(N3CCN(C)CC3)nc(Sc3ccc(NC(=O)C4CC4)cc3)n2)n[nH]1 [Tozasertib] (partner 0.1 µM) )
Output: 0.395

Task: # get_value(readout='relative viability', item= COc1cc(N2CCC(C(N)=O)CC2)ccc1Nc1nc(N)c(Cl)c(Nc2ccccc2S(=O)(=O)C(C)C)n1 [HG-5-88-01] + CC(=O)Nc1cccc(-n2c(=O)n(C3CC3)c(=O)c3c(Nc4ccc(I)cc4F)n(C)c(=O)c(C)c32)c1 [Trametinib] (partner 0.02 µM) )
Output: 0.316

Task: # get_value(readout='relative viability', item= C[C@@H]1CN(CC(=O)Nc2ccc3c(c2)Cc2cccc(-c4cc(=O)cc(N5CCOCC5)o4)c2S3)C[C@H](C)O1 + CC(=O)Nc1cccc(-n2c(=O)n(C3CC3)c(=O)c3c(Nc4ccc(I)cc4F)n(C)c(=O)c(C)c32)c1 [Trametinib] (partner 0.02 µM) )
Output: 0.527

Task: # get_value(readout='relative viability', item= Clc1ccc(Nc2nnc(Cc3ccncc3)c3ccccc23)cc1 [Vatalanib] + NC(=O)Nc1cc(-c2cccc(F)c2)sc1C(=O)N[C@H]1CCCNC1 [AZD7762] (partner 0.2 µM) )
Output: 0.735
